Experimental setup: in n-butanol, 308.15 K
Property: solubility (mole fraction)

Q: Given C=CC1=C(C(=O)O)N2C(=O)[C@@H](NC(=O)/C(=N\OCC(=O)O)c3csc(N)n3)[C@H]2SC1.O.O.O , state its recorded solubility (mole fraction).
Result: 0.00249

###

Experimental setup: in ethyl acetate, 278.15 K
Property: solubility (mole fraction)

Q: May I ask what solubility (mole fraction) has been recorded for C=CC1=C(C(=O)O)N2C(=O)[C@@H](NC(=O)/C(=N\OCC(=O)O)c3csc(N)n3)[C@H]2SC1.O.O.O ?
Result: 0.000678

###

Experimental setup: in sec-butanol, 303.15 K
Property: solubility (mole fraction)
A bare number is all that is needed in reply.

Q: Can you look up the measured solubility (mole fraction) of C=CC1=C(C(=O)O)N2C(=O)[C@@H](NC(=O)/C(=N\OCC(=O)O)c3csc(N)n3)[C@H]2SC1.O.O.O for me?
Result: 0.00173
